# measurement target: T1, aminopeptidase N isoform CD13 (APN/CD13) on HT-1080 human fibrosarcoma cells (human, UniProt P15144 2-967)
# T1 construct: whole, on cells; also called CD13/APN marker
# T1 sequence (P15144 2-967): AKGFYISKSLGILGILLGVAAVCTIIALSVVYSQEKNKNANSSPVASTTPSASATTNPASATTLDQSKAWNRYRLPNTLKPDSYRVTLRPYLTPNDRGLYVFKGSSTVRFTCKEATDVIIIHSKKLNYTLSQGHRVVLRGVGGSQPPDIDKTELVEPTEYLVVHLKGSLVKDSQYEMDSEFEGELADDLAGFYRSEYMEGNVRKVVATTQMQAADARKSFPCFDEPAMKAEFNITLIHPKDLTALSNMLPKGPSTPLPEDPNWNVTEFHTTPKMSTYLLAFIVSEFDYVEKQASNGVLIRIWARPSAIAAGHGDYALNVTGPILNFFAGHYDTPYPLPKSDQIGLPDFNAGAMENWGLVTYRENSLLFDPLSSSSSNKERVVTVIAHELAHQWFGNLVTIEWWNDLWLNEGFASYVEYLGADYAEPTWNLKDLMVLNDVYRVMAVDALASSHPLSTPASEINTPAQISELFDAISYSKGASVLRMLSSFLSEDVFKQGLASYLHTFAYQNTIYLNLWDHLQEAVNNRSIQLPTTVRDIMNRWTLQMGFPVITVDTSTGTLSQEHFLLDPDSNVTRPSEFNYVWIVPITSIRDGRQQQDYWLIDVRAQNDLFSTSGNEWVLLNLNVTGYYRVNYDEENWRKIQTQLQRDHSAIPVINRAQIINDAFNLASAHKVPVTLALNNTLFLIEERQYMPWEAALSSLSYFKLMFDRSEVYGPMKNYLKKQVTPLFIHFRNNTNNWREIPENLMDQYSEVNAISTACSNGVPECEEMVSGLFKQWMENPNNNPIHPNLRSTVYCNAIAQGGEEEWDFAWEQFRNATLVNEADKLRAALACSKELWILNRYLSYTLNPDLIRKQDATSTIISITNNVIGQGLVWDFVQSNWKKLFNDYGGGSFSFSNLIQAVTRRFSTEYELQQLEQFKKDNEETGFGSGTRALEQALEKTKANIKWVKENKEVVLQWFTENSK
# assay protocol: flow cytometry on CD13-positive HT-1080 cells
OG = Oregon Green 488 (6-isomer carboxylic acid) on Lys side chain
measure name: EC50 (µM)

P. KNGRE (also called linear NGR peptide; free linear NGR peptide) [linear form of an NGR-containing peptide (SEQ ID NO:4)]
Q. cyclo(K(OG)NGRE) (also: Glu side chain coupled to Rink amide resin (side-chain amide), also called compound 6; NGR-OG agent) [cyclic cK(OG)NGRE (SEQ ID NO:2)]
Pick one, P or Q : lowest reported EC50. Identify your selection by its label.
Q

Numbers sourced from patent US20110200528A1.
